Origin of measurements: PubChem BioAssay

Parameter z-score: see the listing below.
Assay: HepG2 liver cancer cell viability effects, profiling panel, resazurin fluorescence, 24 h, PK04 Diversity Set (AID 1172); further: test concentration not given here
Settings: higher = more signal
API note: the answer field is a bare number with no unit suffix.

Example entries and their recorded answers appear below.
>  <molecule>
C=CCC(OC(C)=O)[C@@H]1[C@@H](N(Cc2ccc(-c3ccccc3)cc2)C(=O)Cc2ccc(F)cc2)c2cc(OCCCO)ccc2N1C(=O)c1ccc(-c2ccccc2)cc1 (some centres undefined)

>  <metric>
z-score

>  <observed-result>
1.27

$$$$
>  <molecule>
CN1C(=O)C2C=CC(C(O)C3CCCCC3)N(Nc3ccc([N+](=O)[O-])cc3[N+](=O)[O-])C2C1=O (centres undefined)

>  <metric>
z-score

>  <observed-result>
-0.248

$$$$
>  <molecule>
COc1cc2c(cc1OC)CN(C(=O)[C@@H]1[C@H]3C(=O)O[C@H](c4ccccc4)[C@H](c4ccccc4)N3[C@H](c3ccc(O)cc3)[C@@]13C(=O)Nc1ccc(C#CC4(O)CCCCCC4)cc13)CC2

>  <metric>
z-score

>  <observed-result>
0.396

$$$$

stdin: What value of z-score has been recorded for this entry: O=C(NCc1ccccc1)[C@@]1(Cc2ccccc2)N=C(c2ccc(OCCCO)cc2)O[C@H]1c1ccccc1
stdout: -0.0664

---

Tested on: glycogen synthase kinase-3 (GSK3A per assay name; protocol says GSK3B)
Test: GSK3 binders on small-molecule microarrays, primary screen, biochemical, small-molecule microarray, 635 nm fluorescence, GSK3A (AID 1103); further: the record names both GSK3A and GSK3B
Conditions: small-molecule microarray binding, fluorescence 635 nm; higher = more signal
Parameter: composite z-score. Scope: all listed entries.
Number only, no unit.

stdin: # lookup: composite z-score of COc1ccc([Si](C)(C)[C@H]2[C@H](CCn3cc([C@H](O)c4ccccc4)nn3)O[C@@]3(C(=O)N(Cc4cccc(N5CCOC5=O)c4)c4ccccc43)[C@@H]2C)cc1
stdout: 0.709

---

We begin with a simple list: items and their reported composite z-score.
Test system: Human papillomavirus type 1a protein E7 (residues 44-93)
Assay: HPV1a E7 fragment binders on microarrays, primary screen, biochemical, small-molecule microarray, residues 44-93, 635 nm fluorescence (AID 1108);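 further: E7 fragment applied at 1 µg/mL in TBST for 1 h at 4 C; score combines spot fluorescence with its signal to noise ratio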
Settings: small-molecule microarray binding, fluorescence 635 nm; higher = more signal
Number only, please.

>  <compound-structure>
C=CC[C@]1(C(=O)NCCCOC)N=C(c2ccc(OCCCO)cc2)O[C@H]1c1ccccc1N=[N+]=[N-]

>  <composite z-score>
1.05

$$$$
>  <compound-structure>
COC(=O)C(CC#Cc1ccc2c(c1)[C@]1(C(=O)N2)[C@H](c2ccc(O)cc2)N2[C@H](c3ccccc3)[C@H](c3ccccc3)OC(=O)[C@H]2[C@@H]1C(=O)Nc1nc2ccccc2s1)C(=O)OC

>  <composite z-score>
1.39

$$$$

In the following, a different molecule is considered.
stdin: Form field: composite z-score recorded for O=C1c2ccccc2[C@@]2(Cc3ccccc3N(CC(F)(F)F)C2=O)[C@H](c2ccc(CO)cc2)N1Cc1ccccc1Cl with Human papillomavirus type 1a protein E7 (residues 44-93) (enter value)
stdout: 0.265

---

Target: NADPH oxidase 2 (Homo sapiens) (UniProt P04839)
Sequence (P04839 whole entry, looked up): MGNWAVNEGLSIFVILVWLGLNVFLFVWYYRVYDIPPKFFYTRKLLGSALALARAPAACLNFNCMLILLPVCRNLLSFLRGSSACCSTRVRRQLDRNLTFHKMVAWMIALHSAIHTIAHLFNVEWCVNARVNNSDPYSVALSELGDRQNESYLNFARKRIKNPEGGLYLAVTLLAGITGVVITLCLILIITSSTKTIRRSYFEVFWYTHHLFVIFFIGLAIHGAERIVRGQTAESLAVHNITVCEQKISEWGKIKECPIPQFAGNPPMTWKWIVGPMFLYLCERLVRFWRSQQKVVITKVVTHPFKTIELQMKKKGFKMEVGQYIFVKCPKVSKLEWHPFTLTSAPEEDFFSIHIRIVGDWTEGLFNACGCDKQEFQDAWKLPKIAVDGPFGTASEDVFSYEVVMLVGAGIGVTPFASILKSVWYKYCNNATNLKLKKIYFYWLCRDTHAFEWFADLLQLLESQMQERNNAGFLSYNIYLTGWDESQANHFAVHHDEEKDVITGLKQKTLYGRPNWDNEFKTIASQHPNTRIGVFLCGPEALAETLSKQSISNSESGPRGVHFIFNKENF
Experiment: NOX2-dependent H2O2 signal modulators, primary screen, NOX inhibitor project, cell-based, HEK293-NOX2, PMA-stimulated, Amplex Red fluorescence (AID 1159); further: test concentration not given here
Conditions: 45 min, higher = more signal, called active from +8 up or from −8 down
metric: z-score
Number only, no unit.

stdin: Please look up its z-score: COCC(=C=CC[C@@H](O)c1ccccc1OCCO)C[C@@H](O)c1cc(Cl)cc(Cl)c1O
stdout: -0.19

stdin: Another molecule to check: COC(=O)[C@@]1(Cc2ccc(F)cc2)[C@H]2c3cc(C(=O)N4CCCC4)n(Cc4ccc(C)o4)c3C[C@H]2CN1C(=O)c1ccccc1
stdout: -0.0294

stdin: Ok, now C=C(COC)/C(=C/C[C@H](OC(=O)c1ccncc1)c1ccc(OCCO)cc1)c1cnc2ccccc2c1
stdout: -0.294

stdin: Similarly, COC(=O)[C@@]1(Cc2ccc(F)cc2)[C@H]2c3cc(C(=O)N(C)C)n(CC4CC4)c3C[C@H]2CN1C(=O)c1ccccc1 ?
stdout: -0.0955

stdin: And what about the molecule COCCOC(=O)N1C(=O)[C@@]2(c3cc(C#CC4=CCCCC4)ccc31)[C@H](C(N)=O)[C@H]1C(=O)O[C@H](c3ccccc3)[C@H](c3ccccc3)N1[C@@H]2c1ccc(OCCO)cc1 ?
stdout: 1.54

stdin: Entry CCCCN1CC=CC23O[C@@H]4/C=C\CCC(C)OC(=O)C4[C@H]2C(=O)N(CCCCCO)[C@@H]3C1=O (some centres not stated) please
stdout: 0.395

stdin: Also, COc1ccc([Si](C)(C)[C@H]2[C@H](CC(=O)N3Cc4ccccc4C[C@H]3CO)O[C@@]3(C(=O)N(Cc4ccc(N5CCC5=O)cc4)c4ccccc43)[C@@H]2C)cc1 please.
stdout: -0.241
